Molecular target: PAR2 (HT-29 cells, trypsin activation) (Homo sapiens)
Construct: host or cells: HT-29 cells
Sequence (P55085 26-397): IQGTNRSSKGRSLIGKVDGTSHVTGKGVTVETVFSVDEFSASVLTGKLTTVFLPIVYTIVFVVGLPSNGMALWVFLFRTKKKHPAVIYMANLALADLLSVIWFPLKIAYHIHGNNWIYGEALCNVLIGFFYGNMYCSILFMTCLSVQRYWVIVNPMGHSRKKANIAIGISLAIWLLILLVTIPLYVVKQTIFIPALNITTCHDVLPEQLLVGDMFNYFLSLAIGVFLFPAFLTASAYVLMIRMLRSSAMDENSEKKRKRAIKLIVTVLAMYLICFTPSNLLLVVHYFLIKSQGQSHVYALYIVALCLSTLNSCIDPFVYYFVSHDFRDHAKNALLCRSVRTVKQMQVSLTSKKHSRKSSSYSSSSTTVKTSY
Experiment: Ca FLIPR TETRA assay, ANTAGONIST mode, stimulation with 3.1 U/mL trypsin
Assay type: cell-based
Settings: HT-29 cells, antagonist mode, stimulation with 3.1 U/mL trypsin
parameter-measured: pIC50
One number for each entry, as −log10 of the molar value.

- chemical-string: "CC(C)(C)c1cc(-c2ccccc2)nn2cc(C(=O)N3CCNC(=O)C3(C)C)nc12"
  pIC50: 8.29

List pIC50 for every entry below, keeping the order given.
1. COC(=O)CN1CCN(C(=O)c2cn3nc(-c4ccc(F)cc4)cc(C(C)(C)C)c3n2)C(C)(C)C1=O
2. Cc1cc(C(=O)N2CCN(C(=O)c3cn4nc(-c5ccc(Cl)c(F)c5)cc(C(C)(C)C)c4n3)C(C)(C)C2)[nH]n1
3. CC(C)c1cc(-c2ccc(C(F)(F)F)cc2)nn2cc(C(=O)N3CCN(C(=O)c4ccncn4)CC3(C)C)nc12
4. Cc1nnc(C(=O)N2CCN(C(=O)c3cn4nc(-c5ccc(C(F)F)cc5)cc(C(C)C)c4n3)C(C)(C)C2)o1

output:
1. 8.34
2. 9.52
3. 8.15
4. 7.28

input: Consider the compound Cc1ncc(C(=O)N2CCN(C(=O)c3cn4nc(-c5ccc(Cl)c(F)c5)cc(C(C)(C)C)c4n3)C(C)(C)C2)[nH]1 and give its measured pIC50.
output: 8.92
